assayedTarget: PPARγ (Homo sapiens)
Sequence (P37231 1-505): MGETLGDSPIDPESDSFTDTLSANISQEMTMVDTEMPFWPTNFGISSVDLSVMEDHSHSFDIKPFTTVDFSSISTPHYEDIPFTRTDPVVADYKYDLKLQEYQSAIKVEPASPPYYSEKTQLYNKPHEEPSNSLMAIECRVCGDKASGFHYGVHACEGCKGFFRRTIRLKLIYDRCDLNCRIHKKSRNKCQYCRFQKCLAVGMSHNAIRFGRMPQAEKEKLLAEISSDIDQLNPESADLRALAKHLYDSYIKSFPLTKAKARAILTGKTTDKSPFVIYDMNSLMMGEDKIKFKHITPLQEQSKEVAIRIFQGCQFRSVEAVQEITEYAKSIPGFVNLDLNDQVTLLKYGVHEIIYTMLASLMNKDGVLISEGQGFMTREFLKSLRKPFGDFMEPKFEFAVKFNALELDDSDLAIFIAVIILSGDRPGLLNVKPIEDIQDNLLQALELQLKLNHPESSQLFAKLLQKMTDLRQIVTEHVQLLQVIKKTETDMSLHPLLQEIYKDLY
experimentalConditions: read-out: Kd2; single cycle kinetics, heterogeneous ligand model
parameterMeasured: Kd (µM)
Provide the reading as a plain figure in µM.

Tested system PPARγ (Homo sapiens); Kd recorded for CCCCC/C=C/C=C1/C(=O)C=C[C@@H]1C/C=C\CCCC(=O)O [15Δ-PGJ2, 15-deoxy-delta-12,14-prostaglandin J2] was 311
